Test: Cytotoxicity, growth inhibition of U-20S cells
Format: cell-based
Conditions: human
pIC50: −log10 of the molar value.
Readings of pIC50 for the listed compounds
measured.attribute: pIC50

[
  {
    "structure.string": "O=C(Nc1ccnc(C(F)(F)F)c1)Nc1ccc2c(c1)OC(F)(F)O2",
    "experimental.result": "< 4.00"
  },
  {
    "structure.string": "O=C(Nc1ccnc(C(F)(F)F)c1)Nc1ccnc(C(F)(F)F)c1",
    "experimental.result": "< 4.00"
  },
  {
    "structure.string": "O=C(Nc1ccc(F)c(C(F)(F)F)c1)Nc1ccc(F)c(C(F)(F)F)c1",
    "experimental.result": "< 4.00"
  }
]

====

# IC50 values compiled below
Assay: Cytotoxicity, growth inhibition of HEK293 cells
Type: cell-based
Details: human, HEK293 cells (kidney)
measured.attribute: IC50

[
  {
    "structure.string": "N#Cc1ccc(NC(=O)Nc2ccnc(C(F)(F)F)c2)cc1",
    "experimental.result": "> 100 µM"
  },
  {
    "structure.string": "O=C(Nc1ccc2c(c1)OC(F)(F)O2)Nc1ccc2c(c1)OC(F)(F)O2",
    "experimental.result": "> 100 µM"
  },
  {
    "structure.string": "O=C(Nc1ccnc(C(F)(F)F)c1)Nc1ccc2c(c1)OC(F)(F)O2",
    "experimental.result": "> 100 µM"
  },
  {
    "structure.string": "O=C(Nc1ccnc(C(F)(F)F)c1)Nc1ccc(F)c(C(F)(F)F)c1",
    "experimental.result": "> 100 µM"
  },
  {
    "structure.string": "O=C(Nc1ccnc(C(F)(F)F)c1)Nc1ccnc(C(F)(F)F)c1",
    "experimental.result": "> 100 µM"
  },
  {
    "structure.string": "O=C(Nc1ccc(F)c(C(F)(F)F)c1)Nc1ccc(F)c(C(F)(F)F)c1",
    "experimental.result": "> 100 µM"
  },
  {
    "structure.string": "N#Cc1ccc(NC(=O)Nc2ccc(F)c(C(F)(F)F)c2)cc1",
    "experimental.result": "> 100 µM"
  },
  {
    "structure.string": "O=C(Nc1ccc2c(c1)OC(F)(F)O2)Nc1ccc(F)c(C(F)(F)F)c1",
    "experimental.result": "> 100 µM"
  }
]

====

Measured Sol6.5 values are reported for all entries that follow.
Assay: Kinetic solubility by nephelometry
Format: physicochemical
Conditions: pH 6.5 phosphate buffer, concentration range

[
  {
    "molecule": "N#Cc1ccc(NC(=O)Nc2ccc(F)c(C(F)(F)F)c2)cc1 [Compd 15]",
    "Sol6.5": "<1.6/<1.6 μg/mL"
  },
  {
    "molecule": "O=C(Nc1cnccn1)Nc1cnccn1 [Compd 4]",
    "Sol6.5": "6.3–12.5/6.3–12.5 μg/mL"
  },
  {
    "molecule": "NC(=O)c1ccc(NC(=O)Nc2ccc(F)c(C(F)(F)F)c2)cc1 [Compd 13]",
    "Sol6.5": "6.3–12.5/6.3–12.5 μg/mL"
  },
  {
    "molecule": "O=C(Nc1ccnc(C(F)(F)F)c1)Nc1ccnc(C(F)(F)F)c1 [Compd 2]",
    "Sol6.5": "12.5–25/12.5–25 μg/mL"
  },
  {
    "molecule": "O=C(Nc1ccc(C(=O)O)cc1)Nc1ccc(F)c(C(F)(F)F)c1 [Compd 11]",
    "Sol6.5": "12.5 to 25 µg/mL"
  },
  {
    "molecule": "O=C(Nc1ccncc1)Nc1ccncc1 [Compd 3]",
    "Sol6.5": "12.5 to 25 µg/mL"
  },
  {
    "molecule": "O=C(Nc1cccnc1)Nc1ccc(F)c(C(F)(F)F)c1 [Compd 7]",
    "Sol6.5": "12.5 to 25 µg/mL"
  },
  {
    "molecule": "O=C(Nc1ccc2c(c1)OC(F)(F)O2)Nc1ccc2c(c1)OC(F)(F)O2 [Compd 5]",
    "Sol6.5": "<1.6/<1.6 μg/mL"
  },
  {
    "molecule": "NC(=O)c1ccccc1NC(=O)Nc1ccc(F)c(C(F)(F)F)c1 [Compd 14]",
    "Sol6.5": "1.6–3.1/1.6–3.1 μg/mL"
  },
  {
    "molecule": "O=C(Nc1cccc(C(=O)O)c1)Nc1ccc(F)c(C(F)(F)F)c1 [Compd 12]",
    "Sol6.5": "12.5 to 25 µg/mL"
  },
  {
    "molecule": "CC(=O)c1ccc(NC(=O)Nc2ccc(F)c(C(F)(F)F)c2)cc1 [Compd 16]",
    "Sol6.5": "<1.6/<1.6 μg/mL"
  },
  {
    "molecule": "O=C(Nc1ccnc(C(F)(F)F)c1)Nc1ccc(F)c(C(F)(F)F)c1 [Compd 18]",
    "Sol6.5": "3.1–6.3/3.1–6.3 μg/mL"
  },
  {
    "molecule": "O=C(Nc1ccc2c(c1)OC(F)(F)O2)Nc1ccc(F)c(C(F)(F)F)c1 [Compd 17]",
    "Sol6.5": "<1.6/<1.6 μg/mL"
  },
  {
    "molecule": "O=C(Nc1ccncc1)Nc1ccc(F)c(C(F)(F)F)c1 [Compd 6]",
    "Sol6.5": "6.3–12.5/6.3–12.5 μg/mL"
  },
  {
    "molecule": "N#Cc1ccc(NC(=O)Nc2ccnc(C(F)(F)F)c2)cc1 [Compd 19]",
    "Sol6.5": "1.6–3.1/1.6–3.1 μg/mL"
  },
  {
    "molecule": "O=C(Nc1ccnc(C(F)(F)F)c1)Nc1ccc2c(c1)OC(F)(F)O2 [Compd 20]",
    "Sol6.5": "3.1–6.3/3.1–6.3 μg/mL"
  },
  {
    "molecule": "O=C(Nc1ccc(F)c(C(F)(F)F)c1)Nc1ccc(F)c(C(F)(F)F)c1 [Compd 1]",
    "Sol6.5": "<1.6/<1.6 μg/mL"
  },
  {
    "molecule": "Cc1cc(NC(=O)Nc2ccc(F)c(C(F)(F)F)c2)on1 [Compd 10]",
    "Sol6.5": "6.3 to 12.5 µg/mL"
  }
]

====

The following compounds are listed with their measured Sol2.0 values.
Experiment: Kinetic solubility by nephelometry
Format: physicochemical
Settings: 0.01 M HCl (approx. pH 2.0), concentration range
measured.attribute: Sol2.0

[
  {
    "compound": "O=C(Nc1ccnc(C(F)(F)F)c1)Nc1ccc(F)c(C(F)(F)F)c1 [Compd 18]",
    "experimental.result": "3.1–6.3/3.1–6.3 μg/mL"
  },
  {
    "compound": "N#Cc1ccc(NC(=O)Nc2ccnc(C(F)(F)F)c2)cc1 [Compd 19]",
    "experimental.result": "1.6–3.1/1.6–3.1 μg/mL"
  },
  {
    "compound": "NC(=O)c1ccccc1NC(=O)Nc1ccc(F)c(C(F)(F)F)c1 [Compd 14]",
    "experimental.result": "1.6–3.1/1.6–3.1 μg/mL"
  },
  {
    "compound": "O=C(Nc1ccncc1)Nc1ccc(F)c(C(F)(F)F)c1 [Compd 6]",
    "experimental.result": "6.3–12.5/6.3–12.5 μg/mL"
  },
  {
    "compound": "O=C(Nc1ccc(F)c(C(F)(F)F)c1)Nc1cnccn1 [Compd 9]",
    "experimental.result": "1.6 to 3.1 µg/mL"
  },
  {
    "compound": "O=C(Nc1ccnc(C(F)(F)F)c1)Nc1ccc2c(c1)OC(F)(F)O2 [Compd 20]",
    "experimental.result": "3.1–6.3/3.1–6.3 μg/mL"
  },
  {
    "compound": "Cc1cc(NC(=O)Nc2ccc(F)c(C(F)(F)F)c2)on1 [Compd 10]",
    "experimental.result": "12.5 to 25 µg/mL"
  },
  {
    "compound": "O=C(Nc1cccnc1)Nc1ccc(F)c(C(F)(F)F)c1 [Compd 7]",
    "experimental.result": "50 to 100 µg/mL"
  },
  {
    "compound": "CC(=O)c1ccc(NC(=O)Nc2ccc(F)c(C(F)(F)F)c2)cc1 [Compd 16]",
    "experimental.result": "<1.6/<1.6 μg/mL"
  },
  {
    "compound": "O=C(Nc1ccc2c(c1)OC(F)(F)O2)Nc1ccc(F)c(C(F)(F)F)c1 [Compd 17]",
    "experimental.result": "<1.6/<1.6 μg/mL"
  }
]

====

Assay: Plasma exposure after single oral dose in non-infected mice
Assay type: in vivo, male Swiss outbred mice
Settings: single 100 mg/kg oral dose, non-infected mice; up to 48 h post-dose
# maps each entry to its plasma concentration maintained over the 48 h sampling period
measured.attribute: plasma concentration maintained over the 48 h sampling period

[
  {
    "molecule": "O=C(Nc1ccnc(C(F)(F)F)c1)Nc1ccc2c(c1)OC(F)(F)O2 [Compd 20]",
    "experimental.result": "> 5 µM"
  },
  {
    "molecule": "O=C(Nc1ccc2c(c1)OC(F)(F)O2)Nc1ccc(F)c(C(F)(F)F)c1 [Compd 17]",
    "experimental.result": "> 5 µM"
  },
  {
    "molecule": "O=C(Nc1ccc2c(c1)OC(F)(F)O2)Nc1ccc2c(c1)OC(F)(F)O2 [Compd 5]",
    "experimental.result": "> 5 µM"
  }
]

The reported numbers originate from paper PMC6026081.
